Experiment: in vivo
Set-up: species or system SCID mice
Settings: SCID, mouse, iv, 10 pmol peptide, total radioactivity, %ID/g tissue, Kidneys
quantity-measured: tissue uptake at 24 h (%ID/g)

molecule	quantity-measured	numeric-readout
CSCC[C@H](NC(=O)[C@H](Cc1c[nH]c2ccccc12)NC(=O)CNC(=O)[C@H](Cc1ccc(O)cc1)NC(=O)[C@H](C)NC(=O)[C@@H](CCC(=O)O)NC(=O)[C@@H](CCC(=O)O)NC(=O)[C@@H](CCC(=O)O)NC(=O)[C@@H](CCC(=O)O)NC(=O)[C@@H](CCC(=O)O)NC(=O)[C@@H](CCC(=O)O)NC(=O)CN1CCN(CC(=O)O)CCN(CC(=O)O)CCN(CC(=O)O)CC1)C(=O)N[C@@H](CC(=O)O)C(=O)N[C@@H](Cc1ccccc1)C(N)=O [^111In-CP04, metal not drawn]	tissue uptake at 24 h	3.29

----------
Assay: in vivo
Design: species or system Swiss albino mice
Conditions: Swiss albino, mouse, iv, 10 pmol peptide, total radioactivity, %ID/g tissue, Liver

compound	tissue uptake at 0.5 h [%ID/g]
CSCC[C@H](NC(=O)[C@H](Cc1c[nH]c2ccccc12)NC(=O)CNC(=O)[C@H](Cc1ccc(O)cc1)NC(=O)[C@H](C)NC(=O)[C@@H](CCC(=O)O)NC(=O)[C@@H](CCC(=O)O)NC(=O)[C@@H](CCC(=O)O)NC(=O)[C@@H](CCC(=O)O)NC(=O)[C@@H](CCC(=O)O)NC(=O)[C@@H](CCC(=O)O)NC(=O)CN1CCN(CC(=O)O)CCN(CC(=O)O)CCN(CC(=O)O)CC1)C(=O)N[C@@H](CC(=O)O)C(=O)N[C@@H](Cc1ccccc1)C(N)=O [^111In-CP04, metal not drawn]	0.77

----------
Test: in vivo
Design: species or system Swiss albino mice
Settings: Swiss albino, mouse, iv, 10 pmol peptide, total radioactivity, %ID/g tissue, Spleen
quantity-measured: tissue uptake at 24 h (%ID/g)

molecule	quantity-measured	value-units	numeric-readout
CSCC[C@H](NC(=O)[C@H](Cc1c[nH]c2ccccc12)NC(=O)CNC(=O)[C@H](Cc1ccc(O)cc1)NC(=O)[C@H](C)NC(=O)[C@@H](CCC(=O)O)NC(=O)[C@@H](CCC(=O)O)NC(=O)[C@@H](CCC(=O)O)NC(=O)[C@@H](CCC(=O)O)NC(=O)[C@@H](CCC(=O)O)NC(=O)[C@@H](CCC(=O)O)NC(=O)CN1CCN(CC(=O)O)CCN(CC(=O)O)CCN(CC(=O)O)CC1)C(=O)N[C@@H](CC(=O)O)C(=O)N[C@@H](Cc1ccccc1)C(N)=O [^111In-CP04, metal not drawn]	tissue uptake at 24 h	%ID/g	0.04
